System: Mycobacterium tuberculosis
Experiment: Antitubercular activity against Multidrug-resistant Mycobacterium tuberculosis after 7 days by resazurin assay
Assay type: functional
Settings: 168 h
Here, each record is paired with measured MIC data.
Readout: MIC

[
  {
    "Smiles data": "N#Cc1ccccc1C(=O)OCc1csc(N)n1",
    "System tested": "Mycobacterium tuberculosis",
    "Readout": "MIC",
    "Result": "> 50 µg/mL"
  },
  {
    "Smiles data": "Nc1nc(COC(=O)c2c(F)cc(F)cc2F)cs1",
    "System tested": "Mycobacterium tuberculosis",
    "Readout": "MIC",
    "Result": "25 µg/mL"
  },
  {
    "Smiles data": "Nc1nc(COC(=O)c2ccccc2[N+](=O)[O-])cs1",
    "System tested": "Mycobacterium tuberculosis",
    "Readout": "MIC",
    "Result": "12.5 µg/mL"
  },
  {
    "Smiles data": "Nc1nc(COC(=O)c2ccc([N+](=O)[O-])cc2)cs1",
    "System tested": "Mycobacterium tuberculosis",
    "Readout": "MIC",
    "Result": "1.25 µg/mL"
  },
  {
    "Smiles data": "Nc1nc(COC(=O)c2ccc(Br)cc2)cs1",
    "System tested": "Mycobacterium tuberculosis",
    "Readout": "MIC",
    "Result": "2.5 µg/mL"
  },
  {
    "Smiles data": "Nc1nc(COC(=O)C2(c3ccc(Cl)cc3)CC2)cs1",
    "System tested": "Mycobacterium tuberculosis",
    "Readout": "MIC",
    "Result": "> 50 µg/mL"
  }
]
